# System: HeLa MZ
# ASSAY_NOTES: LBPA endosome anti-LBPA integrated intensity (sum per cell), Z-score; higher = more LBPA staining
# ASSAY_CONDITIONS: compound concentration in added solution (µM; 5 µl added to 20 µl cells): 10; 18 h
Counter-ions that a name gives are not always drawn.
REPORTED_ENDPOINT: LBPA endosome anti-LBPA integrated intensity (z-score)

- COMPOUND: "N=C(NCCCCCCNC(=N)NC(=N)Nc1ccc(Cl)cc1)NC(=N)Nc1ccc(Cl)cc1"
  SYSTEM: "HeLa MZ"
  QUANTITATIVE_READOUT: -0.794
- COMPOUND: "CCN(CC)C(=S)SSC(=S)N(CC)CC"
  SYSTEM: "HeLa MZ"
  QUANTITATIVE_READOUT: 0.205
- COMPOUND: "CC[N+](C)(CC)CCOC(=O)C1c2ccccc2Oc2ccccc21 [Methantheline bromide]"
  SYSTEM: "HeLa MZ"
  QUANTITATIVE_READOUT: -0.164
- COMPOUND: "CCCN[C@H]1CCc2nc(N)sc2C1 [Pramipexole]"
  SYSTEM: "HeLa MZ"
  QUANTITATIVE_READOUT: 0.761
- COMPOUND: "CCOc1ccc(Cc2nccc3cc(OCC)c(OCC)cc23)cc1OCC [Ethaverine hydrochloride]"
  SYSTEM: "HeLa MZ"
  QUANTITATIVE_READOUT: 2.53
- COMPOUND: "COc1ccc(Cl)cc1C(=O)NCCc1ccc(S(=O)(=O)NC(=O)NC2CCCCC2)cc1 [Glibenclamide]"
  SYSTEM: "HeLa MZ"
  QUANTITATIVE_READOUT: -1.35
- COMPOUND: "Cc1cccc(Nc2ccncc2S(=O)(=O)NC(=O)NC(C)C)c1 [Torsemide]"
  SYSTEM: "HeLa MZ"
  QUANTITATIVE_READOUT: -0.115
- COMPOUND: "COc1ccc(-c2ccc(=N)n(CCCC(=O)O)n2)cc1 [Gabazine bromide]"
  SYSTEM: "HeLa MZ"
  QUANTITATIVE_READOUT: -0.0518
- COMPOUND: "Nc1cc(N2CCCCC2)nc(N)[n+]1[O-]"
  SYSTEM: "HeLa MZ"
  QUANTITATIVE_READOUT: -0.257
- COMPOUND: "O=C(NCCNCC(O)COc1ccc(O)cc1)N1CCOCC1 (centres undefined) [Xamoterol hemifumarate]"
  SYSTEM: "HeLa MZ"
  QUANTITATIVE_READOUT: -0.849
- COMPOUND: "OCCOCCN1CCN(C2=Nc3ccccc3Sc3ccccc32)CC1"
  SYSTEM: "HeLa MZ"
  QUANTITATIVE_READOUT: 0.201
- COMPOUND: "CN(C)CCCSC(=N)N [Dimaprit dihydrochloride]"
  SYSTEM: "HeLa MZ"
  QUANTITATIVE_READOUT: -1.27
- COMPOUND: "CC(NCCC(c1ccccc1)c1ccccc1)c1ccccc1 (centres undefined) [Fendiline hydrochloride]"
  SYSTEM: "HeLa MZ"
  QUANTITATIVE_READOUT: 1.29
- COMPOUND: "O=C(Nc1ccccc1)OCC(CN1CCCCC1)OC(=O)Nc1ccccc1 (centres undefined) [Diperodon hydrochloride]"
  SYSTEM: "HeLa MZ"
  QUANTITATIVE_READOUT: 2.96
- COMPOUND: "c1ccc(CNc2ncnc3nc[nH]c23)cc1"
  SYSTEM: "HeLa MZ"
  QUANTITATIVE_READOUT: -0.475
- COMPOUND: "CCOC(=O)c1ccc(OC(=O)CCCCCNC(=N)N)cc1 [Gabexate mesilate]"
  SYSTEM: "HeLa MZ"
  QUANTITATIVE_READOUT: 0.019
- COMPOUND: "O=C1CCC(N2C(=O)c3ccccc3C2=O)C(=O)N1 (centres undefined) [Thalidomide]"
  SYSTEM: "HeLa MZ"
  QUANTITATIVE_READOUT: -0.403
- COMPOUND: "Cc1ncc([N+](=O)[O-])n1CCO"
  SYSTEM: "HeLa MZ"
  QUANTITATIVE_READOUT: -1.28
- COMPOUND: "CCN(CCCc1ccccc1)CCCc1ccccc1 [Alverine citrate salt]"
  SYSTEM: "HeLa MZ"
  QUANTITATIVE_READOUT: 1.56
